Test System: human β2-adrenergic receptor (hβAR) (Homo sapiens, UniProt P07550)
Sequence (P07550 with tags, fused parts or gaps limits assumed): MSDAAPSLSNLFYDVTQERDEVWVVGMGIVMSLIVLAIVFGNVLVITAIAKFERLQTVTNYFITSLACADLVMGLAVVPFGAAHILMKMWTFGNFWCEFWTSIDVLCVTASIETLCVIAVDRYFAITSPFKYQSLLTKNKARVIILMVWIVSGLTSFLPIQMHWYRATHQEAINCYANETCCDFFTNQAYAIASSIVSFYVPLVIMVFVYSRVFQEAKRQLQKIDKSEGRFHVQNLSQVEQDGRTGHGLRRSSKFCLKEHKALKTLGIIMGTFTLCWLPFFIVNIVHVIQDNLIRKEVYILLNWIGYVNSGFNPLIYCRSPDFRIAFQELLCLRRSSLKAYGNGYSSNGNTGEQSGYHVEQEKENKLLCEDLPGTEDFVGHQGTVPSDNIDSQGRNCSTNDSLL
Condition: read-out: Kd for 125I-CYP binding; 125I-CYP 5-400 pM; nonspecific binding with 10 μM (−) alprenolol
Recorded Metric: Kd (nM)
Express it in nM; write the number only.

Noted Kd for CC(C)(C)NC[C@H](O)COc1cccc2[nH]c(C#N)c(I)c12 [125I-CYP, 125I-labeled cyanopindolol] , tested on human β2-adrenergic receptor (hβAR) (Homo sapiens, UniProt P07550): 0.093
